organism: Rattus norvegicus; assay: DrugMatrix - Regimen: Daily Repeat; type: toxicity, organism-based, Sprague-Dawley; design: regimen Daily Repeat, gender Male, age 6-8 weeks; details: in vivo, po, 0 mg/kg, 72 h, tissue Plasma, route oral GAVAGE, dose level Control, time 3 day, vehicle 100 % WATER
Exercise: for every item that follows, state its recorded CHLORIDE.
Answer format: numeric, MEQ/L implied, no suffix.

// field: CHLORIDE; key: Cc1c(N(C)CS(=O)(=O)[O-])c(=O)n(-c2ccccc2)n1C.[Na+] [DIPYRONE SODIUM] ; value = 99

// field: CHLORIDE; key: O=C(O)c1cc(=O)c2c(OCC(O)COc3cccc4oc(C(=O)O)cc(=O)c34)cccc2o1 [CROMOLYN] ; value = 106.33

// field: CHLORIDE; key: CC[C@H]1OC(=O)[C@H](C)[C@@H](O[C@H]2C[C@@](C)(OC)[C@@H](O)[C@H](C)O2)[C@H](C)[C@@H](O[C@@H]2O[C@H](C)C[C@H](N(C)C)[C@H]2O)[C@](C)(O)C[C@@H](C)CN(C)[C@H](C)[C@@H](O)[C@]1(C)O [AZITHROMYCIN] ; value = 97.8

// field: CHLORIDE; key: O=C(O)c1cccnc1 [NIACIN] ; value = 100.67

// field: CHLORIDE; key: O=P1(N(CCCl)CCCl)NCCCO1 (stereo not given) [CYCLOPHOSPHAMIDE ANHYDROUS] ; value = 99.33

###

species: Rattus norvegicus; experiment: DrugMatrix - Regimen: Daily Repeat; type: toxicity, organism-based, Sprague-Dawley; set-up: regimen Daily Repeat, gender Male, age 6-8 weeks; settings: in vivo, po, 0 mg/kg, 72 h, tissue Blood, route oral GAVAGE, dose level Control, time 3 day, […]
quantity.name: MEAN CORPUSCULAR HEMOGLOBIN (pg)
Answer format: numeric, pg implied, no suffix.

// field: MEAN CORPUSCULAR HEMOGLOBIN; key: OCCN1CCN(CCCN2c3ccccc3Sc3ccc(C(F)(F)F)cc32)CC1 [FLUPHENAZINE] ; value = 24.97

// field: MEAN CORPUSCULAR HEMOGLOBIN; key: CC(=O)Nc1nnc(S(N)(=O)=O)s1 [ACETAZOLAMIDE] ; value = 23.98

// field: MEAN CORPUSCULAR HEMOGLOBIN; key: C#C[C@]1(O)CC[C@H]2[C@@H]3CCc4cc(O)ccc4[C@H]3CC[C@@]21C [ETHINYL ESTRADIOL] ; value = 25.05

// field: MEAN CORPUSCULAR HEMOGLOBIN; key: CC[C@H](C)C(=O)O[C@H]1C[C@@H](C)C=C2C=C[C@H](C)[C@H](CC[C@@H]3C[C@@H](O)CC(=O)O3)[C@H]21 [LOVASTATIN] ; value = 24.57

// field: MEAN CORPUSCULAR HEMOGLOBIN; key: CCn1cc(C(=O)O)c(=O)c2cc(F)c(N3CCNCC3)nc21 [ENOXACIN] ; value = 25.05

// field: MEAN CORPUSCULAR HEMOGLOBIN; key: CC(C)Cc1ccc(CC(=O)O)cc1 [IBUFENAC] ; value = 22.32

// field: MEAN CORPUSCULAR HEMOGLOBIN; key: NC[C@@H]1O[C@H](O[C@H]2[C@@H](O)[C@H](O[C@@H]3[C@@H](O)[C@H](N)C[C@H](N)[C@H]3O[C@H]3O[C@H](CN)[C@@H](O)[C@H](O)[C@H]3N)O[C@@H]2CO)[C@H](N)[C@@H](O)[C@@H]1O [FRAMYCETIN] ; value = 23.72

Origin of measurements: ChEMBL document CHEMBL3885881
